tgt: Chromobox protein homolog 7 (Homo sapiens, UniProt O95931)
protocolText: Binding affinity to CBX7ChD (7 to 66 residues) (unknown origin) expressed in RIPL-BL21 (DE3)-CodonPlus competent cells assessed as compound/protein/FITC-labeled loop C of ANRIL ternary complex formation by fluorescence anisotropy assay
measurementType: Kd (µM)
The reply should contain only the number, in µM.

Cc1ccccc1Cn1c(=N)n(CC(O)c2ccc(Cl)c(Cl)c2)c2ccccc21 (configuration not stated); 23.8

From here, focus on the item given below.
What value of Kd on Chromobox protein homolog 7 (Homo sapiens, UniProt O95931) does COc1cccc(C(=O)N2CCN(C(=O)COc3cccc(C)c3)CC2)c1OC have?
125

====

tgt: UniProt:O95931
Sequence (O95931 whole entry): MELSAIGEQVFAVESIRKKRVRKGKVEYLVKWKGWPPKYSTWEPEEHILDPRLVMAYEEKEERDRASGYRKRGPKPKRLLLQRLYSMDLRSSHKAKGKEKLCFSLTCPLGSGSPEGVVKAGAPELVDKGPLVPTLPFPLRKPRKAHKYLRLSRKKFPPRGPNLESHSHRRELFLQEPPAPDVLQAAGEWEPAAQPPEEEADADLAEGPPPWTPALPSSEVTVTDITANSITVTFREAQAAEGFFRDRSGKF
protocolText: Binding affinity to CBX7ChD (7 to 66 residues) (unknown origin) expressed in RIPL-BL21 (DE3)-CodonPlus competent cells in presence of FITC-labeled SETDB1-K1170me3/H3K27me3/ANRIL-LoopC RNA by fluorescence anisotropy assay
measurementType: pKi
Scale note: pKi = -log10(concentration in M).

Example entries begin here.
COc1cccc(C(=O)N2CCN(C(=O)COc3cc(C)c(NC(N)=O)c(C)c3)CC2)c1OC; 5.32
CCS(=O)(=O)Nc1c(C)cc(OCC(=O)N2CCN(C(=O)c3cccc(OC)c3OC)CC2)cc1C; 5.00
CCS(=O)(=O)Nc1ccc(OCC(=O)N2CCN(C(=O)c3cccc(OC)c3OC)CC2)cc1C; 4.60
COc1cccc(C(=O)N2CCN(C(=O)COc3cccc(C)c3)CC2)c1OC; 4.48
COc1cccc(C(=O)N2CCN(C(=O)COc3ccc(NC(N)=O)c(C)c3)CC2)c1OC; 5.00

What value of pKi on UniProt:O95931 does COc1cccc(C(=O)N2CCN(C(=O)COc3ccc(N)c(C)c3)CC2)c1OC have?
4.41

What value of pKi on UniProt:O95931 does COc1cccc(C(=O)N2CCN(C(=O)COc3cc(C)c(N)c(C)c3)CC2)c1OC have?
4.77
